conditions: in methanol, 278.15 K
measured.endpoint: solubility (mole fraction)
Just the number, please.

Recorded result, CCCc1ncc(C[n+]2ccccc2C)c(N)n1.Cl.[Cl-] , solubility (mole fraction): 0.000376

###

settings: in ethanol, 303.15 K
measured.endpoint: solubility (mole fraction)
Just the number, please.

Recorded result, CCCc1ncc(C[n+]2ccccc2C)c(N)n1.Cl.[Cl-] , solubility (mole fraction): 0.000232

###

conditions: in 1,4-dioxane, 288.15 K
measured.endpoint: solubility (mole fraction)
Just the number, please.

Recorded result, CCCc1ncc(C[n+]2ccccc2C)c(N)n1.Cl.[Cl-] , solubility (mole fraction): 5.76e-05

###

settings: in acetone, 313.15 K
measured.endpoint: solubility (mole fraction)
Just the number, please.

Recorded result, CCCc1ncc(C[n+]2ccccc2C)c(N)n1.Cl.[Cl-] , solubility (mole fraction): 0.000533
